Reference for the values: ChEMBL document CHEMBL4033774

Target: Histone deacetylase 1 (Homo sapiens, UniProt Q13547)
Sequence (Q13547 whole entry): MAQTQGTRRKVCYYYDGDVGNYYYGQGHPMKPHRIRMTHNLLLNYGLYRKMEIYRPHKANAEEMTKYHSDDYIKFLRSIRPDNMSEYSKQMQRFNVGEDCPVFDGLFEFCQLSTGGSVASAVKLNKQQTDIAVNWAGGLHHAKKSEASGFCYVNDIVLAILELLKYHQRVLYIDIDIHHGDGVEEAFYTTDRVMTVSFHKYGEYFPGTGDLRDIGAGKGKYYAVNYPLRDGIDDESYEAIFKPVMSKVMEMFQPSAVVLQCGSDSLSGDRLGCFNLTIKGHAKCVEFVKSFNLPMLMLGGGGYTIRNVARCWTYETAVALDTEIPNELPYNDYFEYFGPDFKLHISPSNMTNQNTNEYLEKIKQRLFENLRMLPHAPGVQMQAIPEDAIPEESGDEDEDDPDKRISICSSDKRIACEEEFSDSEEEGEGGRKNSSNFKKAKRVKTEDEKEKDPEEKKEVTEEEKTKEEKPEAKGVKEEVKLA
Experiment: Inhibition of recombinant full length human C-terminal FLAG/His-tagged HDAC1 expressed in baculovirus infected sf9 cells preincubated for 3 hrs followed by fluorophore conjugated MAZ1600 substrate addition measured every 5 mins by fluorescence assay
Recorded Endpoint: IC50 (nM)
One number for each entry, in nM.

Look at this molecule and give its reported IC50. "C[C@H](CO)N1C[C@H](C)[C@H](CN(C)Cc2ccc(C(=O)Nc3ccccc3N)cc2)Oc2ccc(N(C)C)cc2CC1=O"
69

---

Molecular target: Protein deacetylase HDAC6 (Homo sapiens)
Sequence (Q9UBN7 whole entry): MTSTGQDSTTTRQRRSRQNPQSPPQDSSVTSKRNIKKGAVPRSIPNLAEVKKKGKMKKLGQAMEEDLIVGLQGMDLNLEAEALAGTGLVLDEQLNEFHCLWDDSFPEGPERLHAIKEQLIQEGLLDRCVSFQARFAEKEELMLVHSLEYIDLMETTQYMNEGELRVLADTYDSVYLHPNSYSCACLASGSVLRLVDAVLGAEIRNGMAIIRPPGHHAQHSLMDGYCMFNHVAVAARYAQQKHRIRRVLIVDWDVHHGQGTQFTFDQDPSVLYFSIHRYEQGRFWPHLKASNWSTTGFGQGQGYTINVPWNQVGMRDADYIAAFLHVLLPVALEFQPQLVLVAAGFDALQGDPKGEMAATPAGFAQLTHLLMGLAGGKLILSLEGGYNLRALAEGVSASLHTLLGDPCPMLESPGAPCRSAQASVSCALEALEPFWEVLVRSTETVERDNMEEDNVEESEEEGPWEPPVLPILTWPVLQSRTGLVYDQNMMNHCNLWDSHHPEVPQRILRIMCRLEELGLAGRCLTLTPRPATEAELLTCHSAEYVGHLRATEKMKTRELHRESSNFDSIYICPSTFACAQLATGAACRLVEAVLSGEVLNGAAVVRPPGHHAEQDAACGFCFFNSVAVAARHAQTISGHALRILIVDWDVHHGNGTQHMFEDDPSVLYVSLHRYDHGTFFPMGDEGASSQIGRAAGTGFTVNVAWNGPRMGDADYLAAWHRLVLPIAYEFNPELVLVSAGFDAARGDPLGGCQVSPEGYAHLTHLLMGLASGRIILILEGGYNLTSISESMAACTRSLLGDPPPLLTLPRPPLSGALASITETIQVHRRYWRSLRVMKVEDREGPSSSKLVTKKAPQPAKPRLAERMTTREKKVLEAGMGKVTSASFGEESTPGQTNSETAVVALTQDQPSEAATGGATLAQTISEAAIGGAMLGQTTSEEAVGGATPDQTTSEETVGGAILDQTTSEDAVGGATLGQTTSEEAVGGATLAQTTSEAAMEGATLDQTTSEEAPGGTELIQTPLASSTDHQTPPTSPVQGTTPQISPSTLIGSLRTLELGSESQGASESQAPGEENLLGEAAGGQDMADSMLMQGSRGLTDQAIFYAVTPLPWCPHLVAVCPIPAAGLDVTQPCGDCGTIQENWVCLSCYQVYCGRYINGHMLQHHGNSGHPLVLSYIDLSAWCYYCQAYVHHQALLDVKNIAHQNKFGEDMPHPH
Experiment: Inhibition of HDAC6 (unknown origin)
pIC50: −log10 of the molar value.
Recorded Endpoint: pIC50

What reported pIC50 corresponds to "COc1ccc(/C=C/C(=O)NO)c(-c2ccc(-c3ccccc3)cc2)c1" on Protein deacetylase HDAC6 (Homo sapiens)?
< 4.70
